- SYSTEM_TESTED: Epidermal growth factor receptor [DEL746-750] (Homo sapiens)
- Sequence (P00533 with tags, fused parts or gaps DEL746-750 limits assumed, stated change not applied): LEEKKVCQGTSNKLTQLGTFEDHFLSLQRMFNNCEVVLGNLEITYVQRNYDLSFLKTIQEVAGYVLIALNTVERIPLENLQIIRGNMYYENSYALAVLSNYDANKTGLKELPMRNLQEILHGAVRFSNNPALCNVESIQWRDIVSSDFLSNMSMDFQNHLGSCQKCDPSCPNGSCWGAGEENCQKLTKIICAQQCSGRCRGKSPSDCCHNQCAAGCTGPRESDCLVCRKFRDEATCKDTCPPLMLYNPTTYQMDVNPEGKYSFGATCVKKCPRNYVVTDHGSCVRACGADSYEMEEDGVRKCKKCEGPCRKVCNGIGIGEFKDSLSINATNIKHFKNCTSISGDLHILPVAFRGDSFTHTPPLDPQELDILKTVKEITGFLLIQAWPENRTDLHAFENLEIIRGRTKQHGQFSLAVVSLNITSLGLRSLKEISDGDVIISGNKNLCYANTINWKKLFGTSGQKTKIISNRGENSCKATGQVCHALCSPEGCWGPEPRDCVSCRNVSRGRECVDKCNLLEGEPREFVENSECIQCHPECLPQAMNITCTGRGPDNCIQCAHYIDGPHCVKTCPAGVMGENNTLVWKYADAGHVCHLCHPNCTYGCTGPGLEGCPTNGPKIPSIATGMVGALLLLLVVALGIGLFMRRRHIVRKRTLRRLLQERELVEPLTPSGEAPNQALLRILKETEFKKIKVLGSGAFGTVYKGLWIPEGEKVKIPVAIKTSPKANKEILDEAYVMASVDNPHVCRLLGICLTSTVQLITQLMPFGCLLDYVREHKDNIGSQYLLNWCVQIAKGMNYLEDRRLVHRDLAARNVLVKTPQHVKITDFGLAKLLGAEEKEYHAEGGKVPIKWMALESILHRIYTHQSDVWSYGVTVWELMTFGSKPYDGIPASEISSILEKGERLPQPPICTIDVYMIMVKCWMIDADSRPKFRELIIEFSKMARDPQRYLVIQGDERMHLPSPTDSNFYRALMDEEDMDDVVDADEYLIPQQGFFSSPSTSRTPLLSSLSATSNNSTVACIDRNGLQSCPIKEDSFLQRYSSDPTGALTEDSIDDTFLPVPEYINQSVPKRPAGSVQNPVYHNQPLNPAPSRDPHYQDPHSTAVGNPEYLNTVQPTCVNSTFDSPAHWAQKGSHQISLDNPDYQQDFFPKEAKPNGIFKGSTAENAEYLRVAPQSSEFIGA
- TEST_DESCRIPTION: Inhibitory Activity of Compounds Against EGFR Mutant Enzyme
pIC50: −log10 of the molar value.
Can you tell me pIC50 for the items I'm about to list?

Data request, read-out pIC50, for CC(=O)Nc1c(C)cccc1Nc1nc(Cl)ncc1Cl
7.70

Similarly, CN(c1c(Cl)cccc1Nc1nc(Cl)ncc1Cl)S(C)(=O)=O ?
> 9.00

Similarly, CC(=O)N(C)c1c([N+](=O)[O-])ccc(C)c1C ?
9.00

Similarly, CCN(c1ccccc1Nc1nc(Cl)ncc1Cl)S(=O)(=O)CC ?
> 9.00

Similarly, CC(C)N(c1ccccc1Nc1nc(Cl)ncc1Cl)S(C)(=O)=O ?
> 9.00

Similarly, CS(=O)(=O)N1CCCc2cccc(Nc3nc(Cl)ncc3Cl)c21 ?
> 9.00

Similarly, Cc1ccc(Nc2nc(Cl)ncc2Cl)c(NS(C)(=O)=O)c1C ?
> 9.00

Similarly, CCc1cccc(Nc2nc(Cl)ncc2Cl)c1N(C)S(C)(=O)=O ?
> 9.00

Value source: BindingDB's records for patent US20240343694
